FYI, the data here is from patent US6984754B1.

Counter-ions that a name gives are not always drawn.
MEASURED PROPERTY: melting point

* CCCCCC(C)N(C)CCC#N (stereo in doubt) (as salt: hydrochloride) [R-2-Heptyl-N-methyl (Propionitriles)] | 98 to 98.5 °C
* CC(C)NCCC(=O)O.Cl [2-Propyl (B-Alanines)] | 154 to 155 °C
* CCCCC[C@H](C)NCC#N.Cl [S-2-Heptyl (Acetonitriles)] | 140 °C
* CCCCCC(C)NCCC#N (stereo in doubt) (as salt: hydrochloride) [R-2-Heptyl (Propionitriles)] | 134 to 135 °C
* CC(C)NCC#N.Cl [2-Propyl (Acetonitriles)] | 166 to 167 °C

Input: May I ask what melting point has been recorded for CCCCCC(C)NCCC(=O)O (stereo in doubt) (as salt: hydrochloride) [R-2-Heptyl (B-Alanines)] ?
Output: 57 to 58 °C

Input: May I ask what melting point has been recorded for CCC(CC)NCCC#N.Cl [3-Pentyl (Propionitriles)] ?
Output: 118.5 to 119.5 °C

Input: May I ask what melting point has been recorded for CCC(C)(C)NCCC#N.Cl [tert-Amyl (Propionitriles)] ?
Output: 199 to 200 °C

Input: May I ask what melting point has been recorded for CCCCCCNCCC#N.Cl [1-Hexyl (Propionitriles)] ?
Output: 188 to 189 °C

Input: May I ask what melting point has been recorded for CCCCC[C@H](C)NCCC#N.Cl [S-2-heptyl (Propionitriles)] ?
Output: 133 to 134 °C

Input: May I ask what melting point has been recorded for CCCCCCNCCC(=O)O [1-Hexyl (B-Alanines), 3(1-Hexylamino)propionic acid] ?
Output: 95 to 97 °C

Input: May I ask what melting point has been recorded for CCCCC[C@H](C)NCCC(=O)OC (stereo in doubt) (as salt: hydrochloride) ?
Output: 89.5 to 90.5 °C

Input: May I ask what melting point has been recorded for CC(C)N(C)CCC#N.Cl [2-Propyl-N-methyl (Propionitriles)] ?
Output: 121 to 121.5 °C

Input: May I ask what melting point has been recorded for CCCCC[C@H](C)NCCC(=O)O.Cl [S-2-Heptyl (B-Alanines)] ?
Output: 56 to 58 °C

Input: May I ask what melting point has been recorded for CC(C)NCCP(=O)(O)O.Cl [2-Propyl (Amino Phosphonic Acids)] ?
Output: 164 to 166 °C

Input: May I ask what melting point has been recorded for CCOC(=O)CNC(C)C (as salt: hydrochloride) ?
Output: 120 to 121 °C

Input: May I ask what melting point has been recorded for CCCCCC(C)NCC#N (stereo in doubt) (as salt: hydrochloride) [R-2-heptyl (Acetonitriles)] ?
Output: 152 to 153 °C
